Value source: patent US20140357577A1

# Test system: HIV mutant virus strain HXB2D with mutation Q40H in the gp41 gene
# testSummary: Standard AVE, HXB2D site directed mutant Q40H
# Type: cell-based, HIV-1
# appliedConditions: fold change vs wild type strain HXB2D
# Description: • Standard Anti-Viral-Experiment “AVE” (wild type HIV strain IIIB+HIV strain HXB2D side directed mutants V38A and Q40H) The HIV-1 replication assay measures virus replication (HIV wild type virus strain 111B or HXB2D, or a HIV mutant virus strain HXB2D with mutation V38A or Q40H in the gp41 gene) as an induction of enhanced green fluorescent protein (EGFP) expression. The indicator MT4-LTR-EGFP cells contain an EGFP gene under the control of the HIV-1 LTR promoter sequence. […]
Starred links: 1 amine or outer side, 2 acyl side, 3 side chain; linkers in the order of their positions; H or OH if unused. Non-standard residues stand in square brackets, D forms with d. No end group written: not given here. *: point of attachment. Suc = O=C(CCC(=O)[*:2])[*:1]; hCys = N[C@@H](CCS)C(=O)O; Pentanoyl = CCCCC(=O)*; Tba = not defined here
observedProperty: HIV-HXB2D Q40H mutant (fold change in EC50)
// keep it numeric: no unit symbol after the value

Recorded result, SUC-CYLACIEALIRAAQEQQEKNEAALR-NH2 (Suc-CYLACIEALIRAAQEQQEKNEAALR-NH2; cysteine pairing not given here) [Peptide 26] , HIV-HXB2D Q40H mutant (fold change in EC50): 311

Recorded result, AC-ECYLACIEALIRAAQEQQEKNEAALR-NH2 [Peptide 45] , HIV-HXB2D Q40H mutant (fold change in EC50): 64

Recorded result, Suc-Hcy-YLA-Hcy-IEALIRAAREQQEKNEALLR-NH2 (Suc-[hCys]YLA[hCys]IEALIRAAREQQEKNEALLR-NH2; also: cyclised, bridge not given here) [Peptide 28] , HIV-HXB2D Q40H mutant (fold change in EC50): 25

Recorded result, ENYLALIEALIRAAQEQQEKNEAALL [Peptide 9] , HIV-HXB2D Q40H mutant (fold change in EC50): 1196

Recorded result, Ac-A[hCys]YAA[hCys]IEALIRAAQEQQEKNEAALR-NH2 (cysteine pairing not given here) [Peptide 78] , HIV-HXB2D Q40H mutant (fold change in EC50): 355

Recorded result, SUC-ACYLACIDELIAKAQEQQEKNEAALR-NH2 (Suc-ACYLACIDELIAKAQEQQEKNEAALR-NH2; cysteine pairing not given here) [Peptide 36] , HIV-HXB2D Q40H mutant (fold change in EC50): 373

Recorded result, Suc-ACYLACIEELIRKAQEQQEKNEAALr-NH2 [Peptide 34] , HIV-HXB2D Q40H mutant (fold change in EC50): 265

Recorded result, Suc-ACYLAC)EELIRKAQEQQEKNEAALR-NH2 [Peptide 31] , HIV-HXB2D Q40H mutant (fold change in EC50): 238

Recorded result, Ac-A[hCys]YAA[hCys]IEALIRAAQEQQEKNEAALR-NH2 (cysteine pairing not given here) [Peptide 77] , HIV-HXB2D Q40H mutant (fold change in EC50): 304

Recorded result, Suc-ECYLACIEELIRKAQEQQEKNEAALR-NH2 (cysteine pairing not given here) [Peptide 90] , HIV-HXB2D Q40H mutant (fold change in EC50): 65

Recorded result, Suc-ANYLALIEAL-Tba-RAAQEQQEKNEAALR-NH2 (reading uncertain; also: chains 1 and 2 are one peptide joined through Tba residue, printed as Suc-ANYLALIEAL-Tba-RAAQEQQEKNEAALR-NH2) [Peptide 11] , HIV-HXB2D Q40H mutant (fold change in EC50): 368

Recorded result, Pentanoyl-ECYLACIEELIRKAQEQQEKNEAALR-NH2 (cysteine pairing not given here) [Peptide 41] , HIV-HXB2D Q40H mutant (fold change in EC50): 42
